B1: TNNI2 (parent)
chain: DWRKNIEEKSGMEGRKKMFESES

Variants of: B1
Assay: protein stability index of a GFP-peptide fusion (GPS, HEK-293T) (PSI 1-6); higher = more stable;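 note: lentivirally expressed fusions sorted by FACS into six bins by GFP to DsRed ratio, PSI derived from sequencing read proportions per bin multiplied by bin number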
Conditions: c terminus: native
// class assignment uses protein stability index with these ranges: class 0 (below 2), class 1 (2 to below 3), class 2 (3 or more)

Examples from the recorded data:
E8Y class 1
K16Y class 0

Lab log: E22H — assign protein stability index category
class 2

Lab log: S10A — assign protein stability index category
class 0

Lab log: E22C — assign protein stability index category
class 2

Lab log: E8T — assign protein stability index category
class 1

Lab log: M18R — assign protein stability index category
class 2

Lab log: E22Y — assign protein stability index category
class 2

Lab log: S23C — assign protein stability index category
class 0

Lab log: R15D — assign protein stability index category
class 1

Lab log: K17M — assign protein stability index category
class 1

Lab log: G14H — assign protein stability index category
class 0

Lab log: E20R — assign protein stability index category
class 1

Lab log: E13L — assign protein stability index category
class 1

Lab log: K9P — assign protein stability index category
class 0

Lab log: E22M — assign protein stability index category
class 2

Lab log: E13T — assign protein stability index category
class 2

Lab log: E22V — assign protein stability index category
class 2

Lab log: E20A — assign protein stability index category
class 1

Lab log: E8I — assign protein stability index category
class 1

Lab log: K17T — assign protein stability index category
class 1

Lab log: E8K — assign protein stability index category
class 1

Lab log: S21C — assign protein stability index category
class 2

Lab log: E8G — assign protein stability index category
class 1

Lab log: D1T — assign protein stability index category
class 1

Lab log: R3H — assign protein stability index category
class 1

Values were extracted from the supplement of paper PMC10567573.
